- assay info: method code SF, from DOI: 10.1016/j.jiec.2010.03.003
recorded metric: logP
// return a plain number; no unit text

Exercise: I am curious: what logP value has been reported for COC(C)(C)C ?
Solution: 1.41

====

- assay info: method code SF-AS, from DOI: 10.1016/s0022-5347(24)07568-2, PMID: 4149453
- setup conditions: pH 7.5
recorded metric: logD
// return a plain number; no unit text

// worked examples, logD included
Exercise: I am curious: what logD value has been reported for CCCCCCCCOC(=O)CCC(NC(=O)c1ccc(N(C)Cc2cnc3nc(N)nc(N)c3n2)cc1)C(=O)OCCCCCCCC (stereo not drawn) ?
Solution: 2.16

Exercise: Check CCCCCOC(=O)CC[C@H](NC(=O)c1ccc(N(C)Cc2cnc3nc(N)nc(N)c3n2)cc1)C(=O)OCCCCC too.
Solution: 1.33

Moving on to another compound below.
Exercise: I am curious: what logD value has been reported for COC(=O)CCC(NC(=O)c1ccc(N(C)Cc2cnc3nc(N)nc(N)c3n2)cc1)C(=O)OC (stereo not drawn) ?
Solution: 0.54
